- STUDY_SYSTEM: T1, fully glycosylated, monobiotinylated extracellular domain of human CD98hc produced in HEK 293E cells (human, UniProt P08195 111-529, N-linked glycosylation at Asn264, 280, 323 and 405 (UniProt P08195-2); single biotin on the N-terminal BAP)
- T1 construct: also called hCD98hcEDg; CD98hcEDg; not shown: N-terminal His6 tag and biotin acceptor peptide (BAP) from pDSG-BM-His6-BAP-hCD98hcEDg
- T1 sequence: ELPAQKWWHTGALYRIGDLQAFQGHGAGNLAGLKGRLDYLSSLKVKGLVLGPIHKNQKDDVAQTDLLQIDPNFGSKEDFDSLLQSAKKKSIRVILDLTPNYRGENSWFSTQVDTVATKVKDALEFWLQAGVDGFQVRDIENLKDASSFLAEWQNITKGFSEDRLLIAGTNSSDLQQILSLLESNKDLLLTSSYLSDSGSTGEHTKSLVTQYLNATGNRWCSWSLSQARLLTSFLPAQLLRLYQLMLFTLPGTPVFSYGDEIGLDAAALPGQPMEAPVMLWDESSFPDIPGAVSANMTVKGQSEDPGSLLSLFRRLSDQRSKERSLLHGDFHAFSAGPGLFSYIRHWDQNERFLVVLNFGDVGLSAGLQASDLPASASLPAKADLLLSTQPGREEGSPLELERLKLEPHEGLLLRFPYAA
- EXPERIMENTAL_PROTOCOL: SPR, complex dissociation half-life

>  <BINDER>
lipocalin variant D11vs (designed binder, P3D11 variant with Phe71Ser and Gly81Val; also called Anticalin D11vs; not shown: C-terminal His6-tag (plasmid pNGAL118) as for the other soluble lipocalin variants) QDSTSDLIPAPPLSKVPLQQNFQDNQFHGKWYVVGRAGNTGLREDKDPGKMFATIYELKEDKSYNVTYVWSGQKKCMYSIVTFVPGSQPGEFTLGNIKSAPGRTSWLVRVVSTNYNQHAMVFFKSVTQNREGFAITLYGRTKELTSELKENFIRFSKSLGLPENHIVFPVPIDQCIDG

>  <UNIT_LABEL>
h

>  <CENSORING_OPERATOR>
=

>  <T1/2>
8.72

$$$$
>  <BINDER>
lipocalin variant P1E4 (designed binder, produced soluble in E. coli JM83, monomeric; also called Anticalin P1E4; not shown: C-terminal His6-tag (plasmid pNGAL118)) QDSTSDLIPAPPLSKVPLQQNFQDNQFHGKWYVVGIAGNSMLREDKDPFKMTATIYELKEDKSYNVTRVRFDDKKCLYRILTFVPGSQPGEFTLGNIKSRPGWTSWLVRVVSTNYNQHAMVFFKRVHQNRETFWITLYGRTKELTSELKENFIRFSKSLGLPENHIVFPVPIDQCIDG

>  <UNIT_LABEL>
h

>  <CENSORING_OPERATOR>
<

>  <T1/2>
0.0167

$$$$
>  <BINDER>
lipocalin variant P3A12 (designed binder, produced soluble in E. coli JM83, monomeric; also called Anticalin P3A12; not shown: C-terminal His6-tag (plasmid pNGAL118)) QDSTSDLIPAPPLSKVPLQQNFQDNQFHGKWYVVGRAGNLGLREDKDPAKMFATIYELKEDKSYNVTYVWFDLKKCKYSIHTFVPGSQPGEFTLGKIKSGPGHTSWLVRVVSTNYNQHAMVFFKWVGQNRENFAITLYGRTKELTSELKENFIRFSKSLGLPENHIVFPVPIDQCIDG

>  <UNIT_LABEL>
h

>  <CENSORING_OPERATOR>
=

>  <T1/2>
0.483

$$$$
>  <BINDER>
lipocalin variant P3D11 (designed binder, produced soluble in E. coli JM83, monomeric; also called Anticalin P3D11; not shown: C-terminal His6-tag (plasmid pNGAL118)) QDSTSDLIPAPPLSKVPLQQNFQDNQFHGKWYVVGRAGNTGLREDKDPGKMFATIYELKEDKSYNVTYVWFGQKKCMYSIGTFVPGSQPGEFTLGNIKSAPGRTSWLVRVVSTNYNQHAMVFFKSVTQNREGFAITLYGRTKELTSELKENFIRFSKSLGLPENHIVFPVPIDQCIDG

>  <UNIT_LABEL>
h

>  <CENSORING_OPERATOR>
=

>  <T1/2>
3.83

$$$$

Value source: patent US20220153790A1
